Catalogue of compounds with associated Population Apoptotic (%)
Tested on: U2OS
Assay notes: Multiplex assay against U2OS
Format: toxicity, cell-based
Run parameters: human, 24 h, 10 µM, compound concentration 10 uM, replicate 1
A number alone suffices; assume %.

Take a look at these entries with their results.
Compound	Measured quantity	Quantitative result
N[C@@]1(C(=O)O)CO[C@H]2[C@H](C(=O)O)[C@H]21 [LY-379268]	Population Apoptotic (%)	81
c1cc(OCCCN2CCCCC2)ccc1CN1CCCCC1 [JNJ-5207852]	Population Apoptotic (%)	82
CC(=O)NCCc1c(Cc2ccccc2)[nH]c2ccccc12 [LUZINDOLE]	Population Apoptotic (%)	88

Input: Request the reported Population Apoptotic (%) associated with CNC[C@H](O)c1ccc(O)c(O)c1 [EPINEPHRINE]
Output: 94

Input: Quick one: N#Cc1c(N)nc(SCc2csc(-c3ccc(Cl)cc3)n2)c(C#N)c1-c1ccc(OCCO)cc1 [CAPADENOSON]
Output: 71

Input: Note, next up: Oc1c(CN2CCN(c3ccccn3)CC2)cc(Cl)c2cccnc12
Output: 90

Input: Would you kindly repeat that for Cc1ccc(-c2ccc(F)cc2COc2ccc(CCC(=O)O)cc2)cc1 ?
Output: 94

Input: Proceed to Cc1ccc(C(C)(O)c2nc3ccccc3s2)c(C)c1 (stereo not given)
Output: 88

Input: // repeat for COc1ccc2c(c1)C(C(=O)N(Cc1ccc(N(C)C)cc1)c1ccc(C(C)C)cc1)CCC2.Cl (stereo not given) and report
Output: 71

Input: Same question, C[C@@H]1C[C@H]2[C@@H]3CCC4=CC(=O)C=C[C@]4(C)[C@@]3(F)[C@@H](O)C[C@]2(C)[C@@]1(O)C(=O)CO [DEXAMETHASONE] this time
Output: 82

Input: Same thing, different compound: COc1c(C)cc(NC(=O)c2nn(Cc3ccc(F)cc3)c3c2CN(C(=O)c2ccc[nH]2)C[C@]3(C)C(N)=O)cc1C
Output: 66

Input: Lookup CCCn1c(=O)c2[nH]c(C3CCCC3)nc2n(CCC)c1=O
Output: 89

Input: And the next one, Cc1ccccc1C(=O)Nc1ccc(C(=O)N2CCCC(N(C)C)c3ccccc32)cc1.Cl (stereo not given) ?
Output: 71

Input: Record: O=C(NCC(=O)N1CC[C@H](N[C@H]2CC[C@@](O)(c3ccc(-c4ncccn4)cn3)CC2)C1)c1cccc(C(F)(F)F)c1 [PF-4136309]
Output: 83

Input: # repeat for Cc1nc2ccc(Oc3ccc(F)cc3)cc2c(=O)n1C[C@H]1CCCN(C(C)C)C1.Cl
Output: 77

---

Test system: HEK-293T
Assay notes: Multiplex assay against HEK293T
Assay type: toxicity, cell-based
Run parameters: human, 12 h, 10 µM, compound concentration 10 uM, replicate 1
Measured quantity: Population Hoechst High Intensity Objects (%)
Return type: number; implicit unit %.

Recorded results for 4 compounds are shown here.
Compound	Quantitative result
N#Cc1c(N)nc(SCc2csc(-c3ccc(Cl)cc3)n2)c(C#N)c1-c1ccc(OCCO)cc1	12
C[C@@H]1C[C@H]2[C@@H]3CCC4=CC(=O)C=C[C@]4(C)[C@@]3(F)[C@@H](O)C[C@]2(C)[C@@]1(O)C(=O)CO	6
CC1(COc2ccc3c(c2)ncn3-c2ccc3cccc(N4CCC(N)CC4)c3n2)COC1	67
CSc1ccccc1N1CCN(CCCCCC(=O)NC2CCCc3ccccc32)CC1.Cl (stereo not given)	15

Let's switch to this compound now.
Input: Recorded Population Hoechst High Intensity Objects (%) of Cl.Clc1ccc2nsnc2c1NC1=NCCN1 [TIZANIDINE HYDROCHLORIDE] , please.
Output: 6

---

Test system: U2OS
Assay notes: Multiplex assay against U2OS
Assay type: toxicity, cell-based
Run parameters: human, 48 h, 1 µM, compound concentration 1 uM, replicate 1
Measured quantity: Population Healthy Nuclei (%)
// units = %; emit number, no label

Some compounds with known Population Healthy Nuclei (%) results, for comparison:
CCCC(CCC)C(=O)O 69
c1cc(OCCCN2CCCCC2)ccc1CN1CCCCC1 69

Query compound follows.
Input: Requested field: Population Healthy Nuclei (%). Item: O=C(O)Cc1ccccc1Nc1c(Cl)cccc1Cl
Output: 71

---

System: U2OS
Assay notes: Multiplex assay against U2OS
Assay type: toxicity, cell-based
Run parameters: human, 48 h, 10 µM, compound concentration 10 uM, replicate 1
Measured quantity: Population Fragmented Nuclei (%)
Your answer is read as %, so omit the unit and give the number.

Check out these entries, answers already filled in.
Compound	System tested	Population Fragmented Nuclei (%)
O=C(NCCO)c1cccc(-c2cc(Nc3ccc(OC(F)(F)F)cc3)ncn2)c1	U2OS	18
N[C@@]1(C(=O)O)CO[C@H]2[C@H](C(=O)O)[C@H]21	U2OS	24

Input: Recorded Population Fragmented Nuclei (%) for CC(=O)NCCc1c(Cc2ccccc2)[nH]c2ccccc12 , please?
Output: 21

Input: Repeat with COc1cc(C(=O)N(CCCc2ccccc2)Cc2ccc(CC(=O)O)cc2)cc(OC)c1C
Output: 18

Input: Try the compound C[C@@H]1C[C@H]2[C@@H]3CCC4=CC(=O)C=C[C@]4(C)[C@@]3(F)[C@@H](O)C[C@]2(C)[C@@]1(O)C(=O)CO
Output: 14

Input: Same for CN1CCN(c2nc3cc(C(F)(F)F)ccc3n3cccc23)CC1.O=C(O)/C=C\C(=O)O.O=C(O)/C=C\C(=O)O
Output: 31

Input: Thanks! And Cc1ccc(C(C)(O)c2nc3ccccc3s2)c(C)c1 (stereo not given) ?
Output: 23

Input: Then this compound: COc1ccc2c(c1)C(C(=O)N(Cc1ccc(N(C)C)cc1)c1ccc(C(C)C)cc1)CCC2.Cl (stereo not given)
Output: 21

Input: Now this one: Cc1nc2ccc(Oc3ccc(F)cc3)cc2c(=O)n1C[C@H]1CCCN(C(C)C)C1.Cl
Output: 29

Input: Quick one: O=C(O)Cc1ccccc1Nc1c(Cl)cccc1Cl
Output: 16

---

System: HEK-293T
Assay notes: Multiplex assay against HEK293T
Format: toxicity, cell-based
Run parameters: human, 48 h, 10 µM, compound concentration 10 uM, replicate 1
Item-by-item account of Population Mitotic Cells (%)

Compound	Measured quantity	Result
Cc1ccc(F)cc1C(=O)Nc1ccc(C(=O)N2Cc3cccn3Cc3ccccc32)c(Cl)c1	Population Mitotic Cells (%)	56%
CN(C)CCCc1cc(C(=O)Nc2ccc(-c3ccncc3)cc2)ccc1O.Cl.Cl	Population Mitotic Cells (%)	70%
CCCn1c(=O)c2[nH]c(C3CCCC3)nc2n(CCC)c1=O	Population Mitotic Cells (%)	70%
Cc1ccccc1C(=O)Nc1ccc(C(=O)N2CCCC(N(C)C)c3ccccc32)cc1.Cl (stereo not given)	Population Mitotic Cells (%)	44%
Cc1ccc(-c2ccc(F)cc2COc2ccc(CCC(=O)O)cc2)cc1	Population Mitotic Cells (%)	75%

Input: Would you kindly share the measured Population Mitotic Cells (%) for COc1cc(C(=O)N(CCCc2ccccc2)Cc2ccc(CC(=O)O)cc2)cc(OC)c1C ?
Output: 67%

Input: # repeat for Oc1c(CN2CCN(c3ccccn3)CC2)cc(Cl)c2cccnc12
Output: 16%

Input: // next record COc1c(C)cc(NC(=O)c2nn(Cc3ccc(F)cc3)c3c2CN(C(=O)c2ccc[nH]2)C[C@]3(C)C(N)=O)cc1C
Output: 39%

Input: Next up: CC(C)(C)c1ccc(S(=O)(=O)Nc2ccc(Cl)cc2C(=O)c2cc[n+]([O-])cc2)cc1
Output: 78%

Input: Lookup CN(C)c1ccnc2sc3c(=O)n(N4CCCCCC4)cnc3c12
Output: 29%

Input: CCOc1c2c(c(OCC)c3ncccc13)CN(c1ccc(CS(=O)(=O)NC(=O)Cc3ccccc3OC)cc1C)C2=O ?
Output: 58%

Input: One more compound: Cc1nc2ccc(Oc3ccc(F)cc3)cc2c(=O)n1C[C@H]1CCCN(C(C)C)C1.Cl
Output: 52%

Input: Next up: O=C(O)Cc1ccccc1Nc1c(Cl)cccc1Cl
Output: 63%

Input: Let us now turn to C[C@H](NC(=O)c1c(C(F)F)nn(C)c1Oc1cccc(C(F)(F)F)c1)c1ccc(C(=O)O)cc1
Output: 70%

Input: Check CN1CCN(c2nc3cc(C(F)(F)F)ccc3n3cccc23)CC1.O=C(O)/C=C\C(=O)O.O=C(O)/C=C\C(=O)O too.
Output: 50%

---

Test system: U2OS
Assay notes: Multiplex assay against U2OS
Type: toxicity, cell-based
Run parameters: human, 12 h, 1 µM, compound concentration 1 uM, replicate 1
With a cut-off of 2%, any Population Hoechst High Intensity Objects (%) strictly below it is called 1 (yes); any Population Hoechst High Intensity Objects (%) meeting it or above is called 0 (no).

Look over these answered cases.
Compound	Discrete label
Cc1ccccc1C(=O)Nc1ccc(C(=O)N2CCCC(N(C)C)c3ccccc32)cc1.Cl (centres undefined)	1 (yes)
CCNC1(C(N)=O)CCN(c2ncnc3c2nc(-c2ccccc2Cl)n3-c2ccc(Cl)cc2)CC1	0 (no)
COc1ccc2c(c1)C(C(=O)N(Cc1ccc(N(C)C)cc1)c1ccc(C(C)C)cc1)CCC2.Cl (centres undefined)	0 (no)
CCCn1c(=O)c2[nH]c(C3CCCC3)nc2n(CCC)c1=O	1 (yes)
N[C@@]1(C(=O)O)CO[C@H]2[C@H](C(=O)O)[C@H]21	1 (yes)
Cc1nc2ccc(Oc3ccc(F)cc3)cc2c(=O)n1C[C@H]1CCCN(C(C)C)C1.Cl	0 (no)

Input: Hello, is Population Hoechst High Intensity Objects (%) of the following compound strictly smaller than 2%? O=C(NCC(=O)N1CC[C@H](N[C@H]2CC[C@@](O)(c3ccc(-c4ncccn4)cn3)CC2)C1)c1cccc(C(F)(F)F)c1
Output: 1 (yes)

Input: Can you handle CCCC(CCC)C(=O)O next?
Output: 0 (no)

Input: Next compound up: COc1cc(NC(=O)CCN2CCC(OC(=O)Nc3ccccc3-c3ccccc3)CC2)c(Cl)cc1CNC[C@H](O)c1ccc(O)c2[nH]c(=O)ccc12
Output: 0 (no)

Input: Do the same for CC(=O)NCCc1c(Cc2ccccc2)[nH]c2ccccc12 please
Output: 0 (no)

Input: Next entry: CSc1ccccc1N1CCN(CCCCCC(=O)NC2CCCc3ccccc32)CC1.Cl (centres undefined)
Output: 0 (no)

Input: # repeat for CN(C)c1ccnc2sc3c(=O)n(N4CCCCCC4)cnc3c12
Output: 1 (yes)

Input: Try the compound CN1CCN2c3ncccc3Cc3ccccc3C2C1 (centres undefined)
Output: 1 (yes)

Input: One more compound: O=C(O)Cc1ccccc1Nc1c(Cl)cccc1Cl
Output: 0 (no)

Input: Please do the same for N#Cc1c(N)nc(SCc2csc(-c3ccc(Cl)cc3)n2)c(C#N)c1-c1ccc(OCCO)cc1 as well.
Output: 0 (no)

Input: Then this compound: Cc1ccc(C(C)(O)c2nc3ccccc3s2)c(C)c1 (centres undefined)
Output: 0 (no)

Input: Please give the result for COc1cc(C(=O)N(CCCc2ccccc2)Cc2ccc(CC(=O)O)cc2)cc(OC)c1C too.
Output: 0 (no)

FYI, the data here is from ChEMBL document CHEMBL5058577.
